target.of.assay: Y115F HIV-1 RT (Human immunodeficiency virus type 1 group M subtype B, UniProt P03366, Y714F)
protocol.notes: Mutant HIV-1 RT assay
pIC50: −log10 of the molar value.
endpoint: pIC50

1. Cc1cn(C/C=C\COC(C(=O)O)P(=O)(O)O)c(=O)[nH]c1=O (stereo not shown); 3.18
2. Nc1ccn(C/C=C\COC(C(=O)O)P(=O)(O)O)c(=O)n1 (stereo not shown); 3.39
3. Nc1ncnc2c1ncn2C/C=C\COC(C(=O)O)P(=O)(O)O (stereo not shown); 3.20

* * *

target.of.assay: Human DNA Pol α (Homo sapiens)
Sequence (P09884 whole entry): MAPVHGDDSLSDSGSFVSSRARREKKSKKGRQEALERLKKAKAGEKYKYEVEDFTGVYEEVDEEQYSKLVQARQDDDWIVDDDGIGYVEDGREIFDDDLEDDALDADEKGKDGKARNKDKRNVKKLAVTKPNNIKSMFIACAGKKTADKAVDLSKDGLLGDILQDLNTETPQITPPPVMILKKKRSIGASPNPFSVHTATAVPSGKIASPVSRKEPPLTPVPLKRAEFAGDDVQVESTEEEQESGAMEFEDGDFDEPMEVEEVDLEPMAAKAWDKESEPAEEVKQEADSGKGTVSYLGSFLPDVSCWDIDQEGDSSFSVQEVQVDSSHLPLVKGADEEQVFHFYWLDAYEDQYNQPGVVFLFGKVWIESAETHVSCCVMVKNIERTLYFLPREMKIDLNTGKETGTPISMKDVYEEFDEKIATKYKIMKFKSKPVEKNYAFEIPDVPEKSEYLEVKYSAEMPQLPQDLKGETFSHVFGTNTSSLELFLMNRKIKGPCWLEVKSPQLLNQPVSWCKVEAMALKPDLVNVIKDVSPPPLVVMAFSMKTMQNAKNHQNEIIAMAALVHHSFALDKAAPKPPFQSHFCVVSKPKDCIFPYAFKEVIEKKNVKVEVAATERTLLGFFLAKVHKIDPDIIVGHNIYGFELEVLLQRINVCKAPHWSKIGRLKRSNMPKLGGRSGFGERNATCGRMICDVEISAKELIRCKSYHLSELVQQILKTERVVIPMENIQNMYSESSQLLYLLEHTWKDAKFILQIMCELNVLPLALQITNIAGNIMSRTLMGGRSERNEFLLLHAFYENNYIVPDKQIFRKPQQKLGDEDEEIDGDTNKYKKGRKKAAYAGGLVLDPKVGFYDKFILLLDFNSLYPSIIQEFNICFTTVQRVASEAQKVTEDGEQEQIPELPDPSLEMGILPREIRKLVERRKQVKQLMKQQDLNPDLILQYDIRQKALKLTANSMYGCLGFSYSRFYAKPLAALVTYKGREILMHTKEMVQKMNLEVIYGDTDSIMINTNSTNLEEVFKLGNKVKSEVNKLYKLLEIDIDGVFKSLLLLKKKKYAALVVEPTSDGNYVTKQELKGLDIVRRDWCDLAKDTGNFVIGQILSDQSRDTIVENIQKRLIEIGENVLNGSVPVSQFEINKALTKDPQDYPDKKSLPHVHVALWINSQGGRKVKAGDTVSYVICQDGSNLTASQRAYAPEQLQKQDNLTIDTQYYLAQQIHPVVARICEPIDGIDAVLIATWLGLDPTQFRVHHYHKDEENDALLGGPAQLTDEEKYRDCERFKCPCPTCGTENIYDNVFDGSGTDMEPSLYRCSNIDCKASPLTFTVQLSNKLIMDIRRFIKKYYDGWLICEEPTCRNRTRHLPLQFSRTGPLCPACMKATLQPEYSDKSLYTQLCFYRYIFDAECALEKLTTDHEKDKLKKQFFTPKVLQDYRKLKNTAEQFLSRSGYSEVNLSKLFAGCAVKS
protocol.notes: Enzyme assay with human DNA polymerase α
Assay type: biochemical
endpoint: IC50 (µM)

1. Nc1nc2c(ncn2C/C=C\COC(C(=O)O)P(=O)(O)O)c(=O)[nH]1 (stereo not shown) [Compound 6l]; 365
2. Cc1cn(C/C=C\COC(C(=O)O)P(=O)(O)O)c(=O)[nH]c1=O (stereo not shown) [Compound 6g]; 14
3. O=C(O)P(=O)(O)O [PFA, phosphonoformic acid, reference compound]; 7.7
4. Nc1ccn(C/C=C\COC(C(=O)O)P(=O)(O)O)c(=O)n1 (stereo not shown) [Compound 6m]; 414
5. Cc1cn(CCCCOC(C(=O)O)P(=O)(O)O)c(=O)[nH]c1=O (stereo not shown) [Compound 6h]; 301
6. O=C(O)C(OC/C=C\Cn1cc(F)c(=O)[nH]c1=O)P(=O)(O)O (stereo not shown) [Compound 6i]; 325
7. Cc1cn(Cc2ccccc2COC(C(=O)O)P(=O)(O)O)c(=O)[nH]c1=O (stereo not shown) [Compound 6d]; 75
8. Cc1cn(Cc2cn(CCOC(C(=O)O)P(=O)(O)O)nn2)c(=O)[nH]c1=O (stereo not shown) [Compound 6f]; 332
9. O=c1[nH]c(=O)n([C@H]2C[C@H](O)[C@@H](COP(=O)(O)OP(=O)(O)OP(=O)(O)O)O2)cc1/C=C/Br [BVDU-TP, reference compound]; 21
